Please go through the items and note down their protein stability index.
assay: protein stability index of a GFP-peptide fusion (yeast GPS) (PSI 1-4); higher = more stable; sorted into four equal gates, so the index is relative within each strain; conditions: ubr1∆

What value of protein stability index has been recorded for this entry: EGDELENKTKKDNDKNL [SRB4] 3.27

What value of protein stability index has been recorded for this entry: LALGCHFQDQKNKKIEV [POP7] 2.29

What value of protein stability index has been recorded for this entry: DILSQILYGLVDKGAIM [YJL039C/NUP192] 2.79

What value of protein stability index has been recorded for this entry: LNHVVSLIENKKAKLVL [RPL8B] 2.83

What value of protein stability index has been recorded for this entry: RLGFFYNDQLYVKEKLE [RPN7] 3.5

What value of protein stability index has been recorded for this entry: SWSNGKITSPIRSVALN [RRP42] 2.81

What value of protein stability index has been recorded for this entry: DDFDMLFGENDTSTQAY [NUT1] 3.2

What value of protein stability index has been recorded for this entry: KERKLRENIAMLKRFFP [SMC1] 2.59

What value of protein stability index has been recorded for this entry: DSTAVALEEGLNEEAVI [YJL039C/NUP192] 2.98

What value of protein stability index has been recorded for this entry: QQQPQPQYNMNMGMNNM [PGD1] 2.89

What value of protein stability index has been recorded for this entry: VTQNVLGLEYIIRLLPI [SRB8] 1.63

What value of protein stability index has been recorded for this entry: REDTPLSQNESTRASTV [ISW2] 2.97

What value of protein stability index has been recorded for this entry: LYEKLKQEIMMSDLFTF [ISW2] 2.64

What value of protein stability index has been recorded for this entry: NGMFCQVPSSLIVRAKN [RRP4] 2.27

What value of protein stability index has been recorded for this entry: LIIDEIHLLHDDRGPVL [BRR2] 2.88

What value of protein stability index has been recorded for this entry: HSLREYINGKATALANL [RPO31] 2.99

What value of protein stability index has been recorded for this entry: SKKISNTAAALVSLLDE [YAR002W/NUP60] 2.78

What value of protein stability index has been recorded for this entry: GSTFKVNQEFIFEAISL [YJL039C/NUP192] 1.49

What value of protein stability index has been recorded for this entry: VAAASKILSNLVYQYKG [PRE2] 2.49

What value of protein stability index has been recorded for this entry: QVPQVRSMSGQPPTNVQ [SNF5] 2.95

What value of protein stability index has been recorded for this entry: DVVTREYTINLHKRLHG [RPL31A] 1.71

What value of protein stability index has been recorded for this entry: VQLSPSNPQHIIQPFLD [RGR1] 2.82

What value of protein stability index has been recorded for this entry: QWMVSLFNNHLNGILAD [SNF2] 1.2

What value of protein stability index has been recorded for this entry: LNISGEFFRNKLKYHDF [RPL16A] 1.12

What value of protein stability index has been recorded for this entry: DQLAVSPEQIDASPDSL [YCS4] 1.86

What value of protein stability index has been recorded for this entry: PQYQYQRRYVIKEKVQF [ITC1] 1.47

What value of protein stability index has been recorded for this entry: VSMITDHNALPQRCTFA [POP1] 2.73

What value of protein stability index has been recorded for this entry: KSSILTVLQKNSLLLDS [YML103C/NUP188] 2.36

What value of protein stability index has been recorded for this entry: RRYKLLTATPNSINKTT [POP1] 2.52

What value of protein stability index has been recorded for this entry: VMMDVDSSGVNDLHHSE [RPN3] 3.19

Recorded values, source the supplement of paper PMC9732359.
